ASSAY TARGET: phosphorylated active hERK2 enzyme (Homo sapiens (Human), UniProt P28482)
Sequence (P28482 whole entry): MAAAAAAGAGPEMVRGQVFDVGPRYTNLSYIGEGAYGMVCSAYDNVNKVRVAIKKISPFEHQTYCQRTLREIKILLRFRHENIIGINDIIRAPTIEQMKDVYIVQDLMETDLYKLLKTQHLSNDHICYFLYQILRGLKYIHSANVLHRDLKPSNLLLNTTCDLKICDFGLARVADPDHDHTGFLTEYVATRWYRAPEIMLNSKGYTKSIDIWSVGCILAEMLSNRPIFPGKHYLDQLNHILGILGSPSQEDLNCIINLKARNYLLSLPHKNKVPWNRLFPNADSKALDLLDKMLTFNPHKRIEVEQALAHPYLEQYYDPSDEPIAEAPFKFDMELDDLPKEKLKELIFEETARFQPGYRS
MEASUREMENT NOTES: Active Human ERK2 (hERK2) Activity Assay (IMAP-FP)
Assay type: biochemical
RECORDED CONDITIONS: Table 6, 0.5 nM hERK2, 30 μM ATP, 10 point titration, read-out: AERK2 IC50
We begin with a simple list: items and their reported IC50.
Kindly write the number and append the unit.

Known IC50 results, listed for orientation:
- MOLECULE: "CC(C)(O)[C@@H](NC(=O)Nc1cc2[nH]nc(NC(=O)OC3CCOC3)c2cn1)c1ccc(F)cc1 (stereo partly shown) [Example 402]"
  IC50: "2.9 nM"
- MOLECULE: "CCNc1n[nH]c2cc(NC(=O)NCc3cccnc3OCC)ncc12 [Example 238]"
  IC50: "9.6 nM"

GET /values?readout=IC50&item= CCN1CCc2nc(NC(=O)N[C@H](C)c3ccccc3)cc3[nH]nc1c23 [Example 141]
15.4 nM

GET /values?readout=IC50&item= O=C(Nc1cc2[nH]nc(N3CC4CCC(C3)O4)c2cn1)N[C@H](CO)c1ccccc1 [Example 439]
1.9 nM

###

ASSAY TARGET: phosphorylated active hERK2 enzyme (Homo sapiens (Human))
MEASUREMENT NOTES: Active Human ERK2 (hERK2) Activity Assay (IMAP-FP)
Type: biochemical
RECORDED CONDITIONS: Table 6, 0.5 nM hERK2, 30 μM ATP, 10 point titration, read-out: AERK2 IC50
Experimental: Assays Active Human ERK2 (hERK2) Activity Assay: Activated ERK2 activity was determined in an IMAP-FP assay (Molecular Devices). […] The final reaction in each well of 25 μL consists of 0.5 nM hERK2, 900 nM unlabeled peptide, 80 nM labeled-peptide, and 30 μM ATP. […] Plates were read on EnVision reader after 60 minutes binding equilibration using Fluorescence Polarization protocol (Perkin Elmer).
pIC50: −log10 of the molar value.
Binary call on pIC50: rule met from 9 upward, rule not met beneath that.

- COMPOUND: "C[C@@H](O)[C@@H](NC(=O)Nc1cc2[nH]nc(N3CCOCC3)c2cn1)c1ccc(F)cc1"
  ASSAY TARGET: "phosphorylated active hERK2 enzyme (Homo sapiens (Human))"
  CATEGORY LABEL: "rule met"
- COMPOUND: "C[C@@H](NC(=O)Nc1cc2[nH]nc(N3CCc4nn(C)cc4C3)c2cn1)c1ccc(F)cc1"
  ASSAY TARGET: "phosphorylated active hERK2 enzyme (Homo sapiens (Human))"
  CATEGORY LABEL: "rule met"
- COMPOUND: "C[C@@H](NC(=O)Nc1cc2[nH]nc(NC(=O)N[C@H](C)c3ccc(Cl)nc3)c2cn1)c1ccc(Cl)nc1"
  ASSAY TARGET: "phosphorylated active hERK2 enzyme (Homo sapiens (Human))"
  CATEGORY LABEL: "rule not met"

Please check the record `C[C@@H](NC(=O)Nc1cc2[nH]nc(NC3CNC3)c2cn1)c1ccccc1` and state if its pIC50 is at or above 9.
rule not met

Please check the record `Nc1n[nH]c2cc(NC(=O)NCc3cccc(F)c3)ncc12` and state if its pIC50 is at or above 9.
rule not met

Please check the record CCNc1n[nH]c2cc(NC(=O)NC(C)c3cccnc3)ncc12 (centres unmarked) and state if its pIC50 is at or above 9.
rule not met

Please check the record CC1CC(Nc2n[nH]c3cc(NC(=O)N[C@H](C)c4ccccc4)ncc23)C(C)O1 (some centres unmarked) and state if its pIC50 is at or above 9.
rule not met

Please check the record `CCNc1n[nH]c2c(C(F)(F)F)c(NC(=O)N[C@H](C)c3ccccc3)ncc12` and state if its pIC50 is at or above 9.
rule not met

Please check the record `C[C@@H]1Cc2nc(NC(=O)N[C@H](C)c3ccccc3)cc3[nH]nc(c23)N1` and state if its pIC50 is at or above 9.
rule not met

Please check the record O=C(Nc1cc2[nH]nc(N3CC4CC3CO4)c2cn1)N[C@H](CO)c1ccccc1 (some centres unmarked) and state if its pIC50 is at or above 9.
rule not met

Please check the record `COC(=O)Nc1n[nH]c2cc(NC(=O)N[C@H](C)C3CCCCC3)ncc12` and state if its pIC50 is at or above 9.
rule not met

Please check the record `Cc1nc(NC(=O)N[C@H](C)c2ccccc2)cc2[nH]nc(N3CCC[C@H]3C(=O)O)c12` and state if its pIC50 is at or above 9.
rule not met
